Sourced from the RNAGym collection of RNA variant scans (doi:10.1101/gad.245936.114)

Form field: nonsense suppression (one value per entry).
B1: tRNA (parent)
chain: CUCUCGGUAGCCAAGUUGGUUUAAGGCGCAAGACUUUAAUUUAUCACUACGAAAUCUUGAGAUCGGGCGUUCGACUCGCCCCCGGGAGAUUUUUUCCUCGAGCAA

Variants of: B1
experiment.summary: nonsense suppression (GFP-seq) (ratio to wild type); higher = more function; SUP4oc tRNA, yeast GFP reporter sort-seq
This sample holds only a part of the variants without activity.

mut | qualifying.sign | nonsense suppression
C3G U20C | = | 0.0788
C12U C82U | = | 0.32
G61A U76C | = | 0.775
C3G A24C A31C | ≤ | 0.026
C1U U17G | ≤ | 0.026
C1U A9U A24C A30U A33G | ≤ | 0.026
C29A A60G | = | 0.0331
G6A A24G | = | 0.0293
U8A A13G | ≤ | 0.026
C1U C5U U22C U63C | ≤ | 0.026
C3U G6C A9U A13G A23G A60G G69C | ≤ | 0.026
A23C G59C G61A | ≤ | 0.026
A31C A60U | = | 0.222
C12G C56G G65A A74U | ≤ | 0.026
U4A C5A | = | 0.0374
U55C C75U | = | 0.903
C1A U21C G73A | ≤ | 0.026
G25A G73A | = | 0.0508
C75A | = | 0.996
G18U A30U G78U | ≤ | 0.026
C80U G84A | = | 0.125
U20C C83G G86A | ≤ | 0.026
U20C C75U | = | 0.843
U16G A54U | = | 1.18
C3U C72G | ≤ | 0.026
U17C U63A | = | 0.197
A9C C29U | = | 0.751
A14C G59U | ≤ | 0.026
C3U A31U | ≤ | 0.026
U58A A60C | = | 0.0508
G65A G73C | ≤ | 0.026
A30U C77U | ≤ | 0.026
C27U G65U | ≤ | 0.026
G18C A89G | ≤ | 0.026
A30U U58A | = | 0.89
C1U G32U U55A A62C G67C | ≤ | 0.026
A33U U57C A62G | ≤ | 0.026
U57A G66A G78C C82A | ≤ | 0.026
A24G C79U | = | 0.0352
U21G A60C | = | 0.0285
G7C A14G U22A A24U G85C | ≤ | 0.026
U21C A30G | = | 0.967
U21G C29U | = | 0.809
G6A A13G U20G C34A G73A | = | 0.0802
C1A C5U U17A U55A | ≤ | 0.026
C1G A33G U55C U71G G78C | ≤ | 0.026
